Entries and their remaining TGFBR2 mRNA
# Test system: TGFBR2 mRNA
# method: remaining TGFBR2 mRNA relative to control siRNA (off-target knock-down) (fraction of control); quantification method: branched DNA; higher = less knock-down
Keep the answer to the number alone.

Recorded remaining TGFBR2 mRNA, per entry:
GAAGGUGUGAGUGAGGUCATT; 1.17
UCUCAUUUACCCUUUGGGGTT; 0.33

Find the recorded remaining TGFBR2 mRNA belonging to UUCUUUGGAGAGUCCGGUCTT and report it.
0.3

Find the recorded remaining TGFBR2 mRNA belonging to AGGUUGUGGGCAAAGAUGUTT and report it.
0.83

Find the recorded remaining TGFBR2 mRNA belonging to AUGGACAUUUACGGUAGUGTT and report it.
0.46

Find the recorded remaining TGFBR2 mRNA belonging to UGUACUUCUCCUUGGAGAATT and report it.
0.64

Find the recorded remaining TGFBR2 mRNA belonging to AGAAGUGUGACACGGGUCUTT and report it.
0.15

Find the recorded remaining TGFBR2 mRNA belonging to AUGCCAUUGUGCAUUGUCATT and report it.
0.36

###

# Test system: TGFBR1 mRNA
# method: remaining TGFBR1 mRNA relative to control siRNA (off-target knock-down) (fraction of control); quantification method: branched DNA; higher = less knock-down
outcomeMeasure: remaining TGFBR1 mRNA
Keep the answer to the number alone.

Recorded remaining TGFBR1 mRNA, per entry:
CACUUCCCGGAUACUCAGATT; 0.96
UAACGUGUGUAUGUCUGGCTT; 0.3
UUUGGACUGGUUGGCACAGTT; 1.11
AGAAGUGUGACACGGGUCUTT; 0.93
AGUUCUCUCAAUUGCUUACTT; 0.92
UCAAGCCCAGAGGUGUCAUTT; 1.24

Find the recorded remaining TGFBR1 mRNA belonging to UCCUUGGUGUAUUCUAACATT and report it.
0.93

Find the recorded remaining TGFBR1 mRNA belonging to AUAUCCCGGGAGUUGUCGUTT and report it.
1.1

Find the recorded remaining TGFBR1 mRNA belonging to AAGUCUGACUCGGUAAGUATT and report it.
0.87

Find the recorded remaining TGFBR1 mRNA belonging to ACAGCCUCGAACACUGACATT and report it.
1.04

Find the recorded remaining TGFBR1 mRNA belonging to AUAAGCAGUGAGAACGAGCTT and report it.
0.5

Find the recorded remaining TGFBR1 mRNA belonging to CAGAGCGAUCACCUUGAACTT and report it.
0.66

Find the recorded remaining TGFBR1 mRNA belonging to GAAGGUGUGAGUGAGGUCATT and report it.
0.19

Find the recorded remaining TGFBR1 mRNA belonging to UGUCCUGGUCACACUUCCATT and report it.
0.23

Find the recorded remaining TGFBR1 mRNA belonging to UUAUCCCAUAUGAGCUCAGTT and report it.
1.33

Find the recorded remaining TGFBR1 mRNA belonging to UCCUUGUCCUUGGACAGUGTT and report it.
1.14

###

Entries and their remaining TGFBR2 mRNA
# System: TGFBR2 mRNA
# method: remaining TGFBR2 mRNA relative to control siRNA (off-target knock-down) (fraction of control); quantification method: branched DNA (R1), qPCR (R2); higher = less knock-down
Keep the answer to the number alone.

AACACCAUCUACUUGAUGGTT; 0.78
UUAUUUGGGUGGGCUGGGGTT; 0.75
UGCACCUGACUUUUCUCUGTT; 0.72
UGUCUCCUCUCUUGUCCGUTT; 0.7
AGCUCAAACAGUAUCUGGUTT; 0.7

Find the recorded remaining TGFBR2 mRNA belonging to AGGAUCAGCAGCCCGUAGCTT and report it.
0.72

Find the recorded remaining TGFBR2 mRNA belonging to ACUACGACUCAGUGCCUGGTT and report it.
0.7

Find the recorded remaining TGFBR2 mRNA belonging to CUCUGGGGAUUUGGAGGAUTT and report it.
0.71

###

# Test system: TGFBR2 mRNA
# method: remaining TGFBR2 mRNA relative to control siRNA (off-target knock-down) (fraction of control); quantification method: branched DNA; higher = less knock-down
outcomeMeasure: remaining TGFBR2 mRNA
Keep the answer to the number alone.

Recorded remaining TGFBR2 mRNA, per entry:
AGACUACUGUGGCCAGUAATT; 1.1
UGUAGUGAAUUCCAAAGAGTT; 0.41
UGAAUAACCCUCUGGACAGTT; 0.83
UGGACAUGGAGUGGCCUGATT; 0.55
CUGACCAUGCAGAGGAUGATT; 0.82

Find the recorded remaining TGFBR2 mRNA belonging to AGCUUAUCCAACAGACGUCTT and report it.
0.29

Find the recorded remaining TGFBR2 mRNA belonging to AUUAUGUCCUCUACGAUUATT and report it.
0.49

Find the recorded remaining TGFBR2 mRNA belonging to CAGUCUCAUCGUCCUCAUCTT and report it.
0.69

Find the recorded remaining TGFBR2 mRNA belonging to UCAUAGCUCUGGCAUCGUCTT and report it.
0.41

Find the recorded remaining TGFBR2 mRNA belonging to UCCUUGUCCUUGGACAGUGTT and report it.
0.24

Find the recorded remaining TGFBR2 mRNA belonging to AGCACUGCGAGUACUGUGUTT and report it.
1.08

Find the recorded remaining TGFBR2 mRNA belonging to UUUGUUGUCCAGUGGUCCGTT and report it.
0.43

Find the recorded remaining TGFBR2 mRNA belonging to GGUGCCAGGCAUUUUAUCCTT and report it.
0.9

Find the recorded remaining TGFBR2 mRNA belonging to AGCUUGUGCCAAGUGCCAUTT and report it.
0.33

Find the recorded remaining TGFBR2 mRNA belonging to GAGGUUGUUGUUGAGCUCGTT and report it.
0.73

Find the recorded remaining TGFBR2 mRNA belonging to AGCCAGAAACUCAGACACCTT and report it.
0.67

Find the recorded remaining TGFBR2 mRNA belonging to CCACUGGUGUGGGCCAUAATT and report it.
0.51

Find the recorded remaining TGFBR2 mRNA belonging to CCUCAAUUGACACUUGCCUTT and report it.
0.8

Find the recorded remaining TGFBR2 mRNA belonging to GAUGUUCCACAAAUUCCACTT and report it.
0.47

Find the recorded remaining TGFBR2 mRNA belonging to AGCGGUGCGUUUCAGGCUGTT and report it.
0.7

Find the recorded remaining TGFBR2 mRNA belonging to AUGCACCGAACAGCUCCAUTT and report it.
0.31

Find the recorded remaining TGFBR2 mRNA belonging to AUGUCUCAAAGUCAAAAAATT and report it.
0.58

Find the recorded remaining TGFBR2 mRNA belonging to AGGCUAUAAGCUCGCCUACTT and report it.
0.25

###

# Test system: TGFBR2 mRNA
# method: remaining TGFBR2 mRNA relative to control siRNA (off-target knock-down) (fraction of control); quantification method: branched DNA; higher = less knock-down
Entries and their remaining TGFBR2 mRNA
Keep the answer to the number alone.

Find the recorded remaining TGFBR2 mRNA belonging to ACCUUACCUUGUCGACGAATT and report it.
0.56

Find the recorded remaining TGFBR2 mRNA belonging to UAUCUCAUGAAAGCGCUUCTT and report it.
0.25

Find the recorded remaining TGFBR2 mRNA belonging to UUGUAAAAACCAGGCGACCTT and report it.
0.33

Find the recorded remaining TGFBR2 mRNA belonging to AUCCUGAGAUGUCAGCAGCTT and report it.
0.4

Find the recorded remaining TGFBR2 mRNA belonging to UACUUAAAGCCAGGGCCACTT and report it.
0.77

###

Entries and their remaining TGFBR2 mRNA
# Test system: TGFBR2 mRNA
# method: remaining TGFBR2 mRNA relative to control siRNA (off-target knock-down) (fraction of control); quantification method: branched DNA; higher = less knock-down
Keep the answer to the number alone.

AUGUAUAGGUAGUGCACAGTT; 0.35
UAUAACUCUCAGGGGAUAUTT; 0.4
UGUUCUUGAAGUCCCGCAGTT; 0.78
AUGCUCCCUCUCAUACUCUTT; 0.39
AAAUGCUCCACCUCUCGGGTT; 0.28

Find the recorded remaining TGFBR2 mRNA belonging to ACUUUGGACAUGACCGGCUTT and report it.
0.51

Find the recorded remaining TGFBR2 mRNA belonging to UCUACCCAGAACUCCACGATT and report it.
1.01

Find the recorded remaining TGFBR2 mRNA belonging to UUUGGACUGGUUGGCACAGTT and report it.
0.69

###

# Test system: TGFBR1 mRNA
# method: remaining TGFBR1 mRNA relative to control siRNA (off-target knock-down) (fraction of control); quantification method: branched DNA; higher = less knock-down
Rule: remaining TGFBR1 mRNA below 0.5 gives T, anything at or above gives F.

GAGUGACCUGCUCCUCUAATT; F

Hello, is remaining TGFBR1 mRNA of the following sequence strictly smaller than 0.5? GAUGGACUGCAUACAUUGGTT
T

Hello, is remaining TGFBR1 mRNA of the following sequence strictly smaller than 0.5? AUAAGACAAGUGGUCGGGGTT
F

Hello, is remaining TGFBR1 mRNA of the following sequence strictly smaller than 0.5? UGCAGUGAUAAAGGCUACATT
T

Hello, is remaining TGFBR1 mRNA of the following sequence strictly smaller than 0.5? AGGUUGUGGGCAAAGAUGUTT
F

Hello, is remaining TGFBR1 mRNA of the following sequence strictly smaller than 0.5? UCUACCCAGAACUCCACGATT
T

Hello, is remaining TGFBR1 mRNA of the following sequence strictly smaller than 0.5? AUCCUUGUCUGGAACAGUGTT
F

Hello, is remaining TGFBR1 mRNA of the following sequence strictly smaller than 0.5? UCCAAGUCGAGAAGAGACCTT
F

Hello, is remaining TGFBR1 mRNA of the following sequence strictly smaller than 0.5? UUCUUCUGGUCCAUACUCATT
T

Hello, is remaining TGFBR1 mRNA of the following sequence strictly smaller than 0.5? UUGGAGCCCUUUCCUUUCUTT
F

Hello, is remaining TGFBR1 mRNA of the following sequence strictly smaller than 0.5? UGUUCUUGAAGUCCCGCAGTT
F

Hello, is remaining TGFBR1 mRNA of the following sequence strictly smaller than 0.5? CUGACCAUGCAGAGGAUGATT
F
